target: G-protein coupled receptor 183 (Homo sapiens) (UniProt P32249); assay: EBI2 receptor antagonists, beta-arrestin recruitment, primary screen, cell-based, luminescence, 7a,25-OHC stimulation, uHTS (AID 651636); settings: 7a,25-OHC stimulated, at 5 µM;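 further: enzyme fragment complementation signal reports receptor beta-arrestin coupling in cells; 0% = agonist plus DMSO wells and 100% = wells without agonist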
Sequence (P32249 whole entry, looked up, the tested form may be a part): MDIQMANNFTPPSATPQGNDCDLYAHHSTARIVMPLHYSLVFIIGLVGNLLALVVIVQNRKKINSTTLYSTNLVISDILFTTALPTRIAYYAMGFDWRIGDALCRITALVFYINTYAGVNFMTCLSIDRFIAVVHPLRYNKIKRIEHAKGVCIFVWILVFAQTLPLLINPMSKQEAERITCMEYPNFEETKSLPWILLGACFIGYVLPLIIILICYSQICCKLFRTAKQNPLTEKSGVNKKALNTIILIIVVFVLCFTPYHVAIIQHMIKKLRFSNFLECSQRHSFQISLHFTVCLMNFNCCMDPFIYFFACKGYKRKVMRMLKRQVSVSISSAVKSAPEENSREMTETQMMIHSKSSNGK
Among all 360,000 compounds or so, about 3,000 (0.83%) were called active. No stated cut-off is given here; in the data, active means inhibition above about 38%; inactive means the rest. The entries come from a sample that favours actives as a whole.
API: response.call in active, inactive

Example results:
Task: Could you kindly confirm the outcome this assay logged for COC(=O)CNC(=O)C(CCSC)NC(C)=O (stereo unspecified) ?
Result: inactive

Task: Could you kindly confirm the outcome this assay logged for `O=C(CSc1ccccc1)Nc1cc(Cl)ccc1Oc1ccccc1` ?
Result: active

Task: Could you kindly confirm the outcome this assay logged for `Cc1nc(NC(=O)C2CCCCC2)sc1C` ?
Result: inactive

Here is the next item to consider.
Task: Could you kindly confirm the outcome this assay logged for `Cc1oc2nc(SCC(=O)NCc3cccnc3)nc(N)c2c1C` ?
Result: inactive

----------
I'd be grateful if you could share measured inhibition for these entries.
target: G-protein coupled receptor 183 (Homo sapiens); assay: EBI2 receptor antagonists, beta-arrestin recruitment, primary screen, cell-based, luminescence, 7a,25-OHC stimulation, uHTS (AID 651636); details: 7a,25-OHC stimulated, at 5 µM, active compounds read high;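 further: enzyme fragment complementation signal reports receptor beta-arrestin coupling in cells; 0% = agonist plus DMSO wells and 100% = wells without agonist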
In all, about 360,000 compounds went through this assay and about 3,000 (0.83%) were called active. The sample as a whole holds a higher share of actives than the screen did.

# example entries with known answers
The recorded inhibition with G-protein coupled receptor 183 (Homo sapiens) for `COc1ccc([C@H]2CC(=O)C=C(/C=C/c3ccc(Cl)cc3)C2)cc1` was 44.1% (active)

The recorded inhibition with G-protein coupled receptor 183 (Homo sapiens) for `Cc1ccc(OCC(=O)N2CCN(S(=O)(=O)c3ccc(Cl)s3)CC2)cc1C` was 90% (active)

The recorded inhibition with G-protein coupled receptor 183 (Homo sapiens) for COC(=O)C1CCN(C(=O)NC2CC(=O)N(c3ccc4c(c3)OCCO4)C2)CC1 (stereo unspecified) was 8.78% (inactive)

The recorded inhibition with G-protein coupled receptor 183 (Homo sapiens) for `COC(=O)[C@@]12C[C@@H](CC(=O)NCCCCc3ccccc3)C(=O)N(Cc3ccccc3)C1=CCC(C)(C)C2` was 17.4% (inactive)

The recorded inhibition with G-protein coupled receptor 183 (Homo sapiens) for `Cc1onc(-c2ccccc2Cl)c1C(=O)N(Cc1ccc(N(C)C)cc1)C(C)C` was 1.77% (inactive)

The recorded inhibition with G-protein coupled receptor 183 (Homo sapiens) for `O=C(/C=C/c1ccc(OCc2c(F)cccc2Cl)cc1)N1CCOCC1` was 7.94% (inactive)

The recorded inhibition with G-protein coupled receptor 183 (Homo sapiens) for `O=C(/C=C/c1ccc(Cl)cc1)N1CCN(c2ccccc2[N+](=O)[O-])CC1` was 93.1% (active)

The recorded inhibition with G-protein coupled receptor 183 (Homo sapiens) for COc1ccc(C2Nc3ccccc3C(=O)N2c2ccc(Cl)cc2)cc1Cn1cc([N+](=O)[O-])cn1 (stereo unspecified) was 4.76% (inactive)

The recorded inhibition with G-protein coupled receptor 183 (Homo sapiens) for `O=C(/C=C/c1cccc([N+](=O)[O-])c1)N1CCN(Cc2ccccc2)CC1` was 53.3% (active)

The recorded inhibition with G-protein coupled receptor 183 (Homo sapiens) for `COc1ccc([C@H]2CC(=O)C=C(c3ccc(C)cc3)C2)cc1` was 81.1% (active)

For each listed entry, give its inhibition.
1. O=C(NNC1=C(C(=O)C(F)(F)F)CCC1)c1ccncc1
2. O=C(CSc1ccccn1)N1CCN(S(=O)(=O)c2ccc(Cl)cc2)CC1
3. COC(=O)[C@]12CCCCC=C1N(Cc1ccc3c(c1)OCO3)C(=O)[C@H](CC(=O)NCc1cccs1)C2
4. O=C1C=C(c2cccc(Cl)c2)C[C@@H](c2ccc(F)cc2)C1

Result:
1. 8.49% (inactive)
2. 1.72% (inactive)
3. 0.7% (inactive)
4. 22.1% (inactive)

For each listed entry, give its inhibition.
1. COc1ccc(N2CCN(Cc3ccc(Br)s3)CC2)cc1
2. N#Cc1ccc(C2=CC(=O)C[C@H](c3ccc(Cl)cc3)C2)cc1

Result:
-1.05% (inactive)
80.3% (active)

For each listed entry, give its inhibition.
1. CC1=C/C(=N\OS(=O)(=O)c2ccccc2)C=CC1=O
2. COc1ccc(S(=O)(=O)N(C)C[C@H]2Oc3c(NC(=O)Nc4ccc5c(c4)OCO5)cccc3C(=O)N([C@H](C)CO)C[C@@H]2C)cc1
3. c1ccc(-c2cnc(CN3CCN(c4ccccc4)CC3)o2)cc1
4. Cc1cccc(NC(=O)CN2CCN(CC(=O)NCC3(N4CCCCC4)CCCCC3)CC2)c1C
5. CCCCOCCCNC(=O)C[C@@H]1C[C@@]2(C(=O)OC)CCCCC=C2N(CCC2=CCCCC2)C1=O
6. COc1ccccc1C(=O)N1C(CC(=O)Nc2ccccc2C)C(=O)NC2CCCCC21 (stereo unspecified)
7. COc1ccc([C@H]2CC(=O)C=C(c3ccc(CO)cc3)C2)cc1

Result:
["-17.6% (inactive)", "5.07% (inactive)", "3.15% (inactive)", "-3.14% (inactive)", "3.92% (inactive)", "3.5% (inactive)", "29.6% (inactive)"]

For each listed entry, give its inhibition.
1. COc1cccc(C2=CC(=O)C[C@H](c3ccc(OC)c(OC)c3)C2)c1
2. COc1ccc(N(CCC(=O)NCCc2ccccc2)S(=O)(=O)c2ccc(C)cc2C)cc1
3. COc1ccc(N2CCN(C(=O)COc3ccc4c(C)cc(=O)oc4c3)CC2)cc1
4. CCc1nc2ccc(C(=O)Nc3cc(-c4ccccc4)ccc3OC)cn2c1N(CC)CC(=O)N(C)C
5. Cc1c(Br)c([N+](=O)[O-])nn1CC(=O)N1CCN(Cc2ccccc2)CC1
6. O=C(COc1ccc(Cl)cc1)N1CCN(S(=O)(=O)c2ccc(Cl)cc2)CC1
7. COc1ccc(S(=O)(=O)N2CCOCC2)cc1C(=O)NC1CCCCC1

Result:
1: 10.2% (inactive); 2: 9.4% (inactive); 3: -7.37% (inactive); 4: 17% (inactive); 5: -9.97% (inactive); 6: 89.2% (active); 7: 3.75% (inactive)

For each listed entry, give its inhibition.
1. CCOc1ccccc1N1CCN(C(=O)c2ccc3[nH]c(C)c(C)c3c2)CC1
2. COc1ccccc1N1CCN(c2nc(C)cc(=O)[nH]2)CC1

Result:
["18.2% (inactive)", "-15.3% (inactive)"]

For each listed entry, give its inhibition.
1. CN(C)C(=O)c1cccc(-c2cnc3c(NC=O)cc(-c4ccc(F)cc4)cn23)c1
2. Cc1cccc(OCCC(=O)OCc2csc(CC(=O)Nc3ccccc3C)n2)c1
3. CCOc1cc(-c2conc2N)cc(OCC)c1OCC
4. O=C(/C=C/c1cccc([N+](=O)[O-])c1)OCC(=O)N1CCOCC1

Result:
1: 8.37% (inactive); 2: -1.51% (inactive); 3: 7.1% (inactive); 4: 1.92% (inactive)

For each listed entry, give its inhibition.
1. C/C=C/C=C/C(=O)OCC(=O)Nc1ccc(Cl)cc1
2. COc1ccccc1N1CCN(C(=O)C2Cc3ccccc3CN2C(=O)c2ccco2)CC1 (stereo unspecified)
3. O=C(c1cc(=O)c2ccccc2o1)N1CCN(c2ccccc2)CC1
4. O=C(CN1CCN(S(=O)(=O)c2ccc(Cl)s2)CC1)N1CCCCC1
5. COc1ccccc1N1CCN(C(=O)c2cc(=O)c3cc(C)cc(C)c3o2)CC1

Result:
1: 1.78% (inactive); 2: 7.65% (inactive); 3: 48.1% (active); 4: -6.5% (inactive); 5: 72.9% (active)

----------
molecular target: G-protein coupled receptor 183 (Homo sapiens) (UniProt P32249); assay: EBI2 receptor antagonists, beta-arrestin recruitment, primary screen, cell-based, luminescence, 7a,25-OHC stimulation, uHTS (AID 651636); conditions: 7a,25-OHC stimulated, at 5 µM;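 further: enzyme fragment complementation signal reports receptor beta-arrestin coupling in cells; 0% = agonist plus DMSO wells and 100% = wells without agonist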
The campaign covered roughly 360,000 compounds. About 3,000 (0.83%) were called active. No stated cut-off is given here; in the data, active means inhibition above about 38%; inactive means the rest. The list comes from a sample in which actives are over-represented; it also holds close analogues and randomly drawn compounds.
API: response.call in yes (1) for active, no (0) for inactive

Task: Could you kindly confirm the outcome this assay logged for `Cc1ccc(C(=O)NCC(=O)OCC(=O)NC2CCCCCCC2)cc1` ?
Result: no (0)

Task: Could you kindly confirm the outcome this assay logged for `O=C(Nc1ccc2c(c1)CCC2)c1ccc(Br)s1` ?
Result: no (0)

Task: Could you kindly confirm the outcome this assay logged for CC1CC(C)CN(CCCNC(=O)Cn2ncc3c([nH]c4ccccc43)c2=O)C1 (stereo unspecified) ?
Result: no (0)

Task: Could you kindly confirm the outcome this assay logged for O=C(NCCCc1ccccc1)C1CCC(=O)N(CCc2ccc(Cl)cc2)C1 (stereo unspecified) ?
Result: yes (1)

Task: Could you kindly confirm the outcome this assay logged for CCOC(=O)C1(O)CC(C)=NN1C(=O)c1cccc(Br)c1 (stereo unspecified) ?
Result: no (0)

Further cases:
Task: Could you kindly confirm the outcome this assay logged for O=C(NCCc1ccccc1Cl)C1CCC(=O)N(CCCc2ccccc2)C1 (stereo unspecified) ?
Result: no (0)

Task: Could you kindly confirm the outcome this assay logged for `CCN(CC)S(=O)(=O)c1cccc(C(=O)NCC(=O)OCC(=O)NCc2ccccc2)c1` ?
Result: no (0)

Task: Could you kindly confirm the outcome this assay logged for `CCCn1nc(C(=O)N2CCCc3ccccc32)c2ccccc2c1=O` ?
Result: no (0)

Task: Could you kindly confirm the outcome this assay logged for `COc1ccc(OCC(=O)N2CCN(C(=O)COc3ccccc3)CC2)cc1` ?
Result: yes (1)

Task: Could you kindly confirm the outcome this assay logged for `CCCCN=C1C([N+](=O)[O-])=CC=C2C1=NC1(CCCCC1)N2O` ?
Result: yes (1)

Task: Could you kindly confirm the outcome this assay logged for `Nc1ccn(CC(=O)N2CCN(c3ccccn3)CC2)c(=O)n1` ?
Result: no (0)
